# Organism: Homo sapiens
# ASSAY_TEXT: Selectivity index, ratio of Ki for inhibition of human CA2 to Ki for inhibition of human CA4
Each item that follows carries a reported Ratio Ki.
Give the figure by itself; no unit, no explanation.

Here's what some known entries look like.
structure_string=CCCCCCN(CCCCCC)CCC(=O)N(CCc1ccc(S(N)(=O)=O)cc1)Cc1ccccc1 obs_value=0.2
structure_string=NS(=O)(=O)c1ccc(CCN(Cc2ccc(F)cc2)C(=O)CN(CCC(=O)O)CCc2ccccc2)cc1 obs_value=0.06

Output Ratio Ki of `CCCCCCN(CCCCCC)CC(=O)N(CCCN)CCc1ccc(S(N)(=O)=O)cc1`
3.2

Output Ratio Ki of `N#CCCN(CCc1ccccc1)CC(=O)N(CCc1ccc(S(N)(=O)=O)cc1)Cc1ccc(F)cc1`
0.03

Output Ratio Ki of `NS(=O)(=O)c1ccc(CCN(Cc2ccco2)C(=O)CN(CCC(=O)O)CCc2ccccc2)cc1`
0.007

Output Ratio Ki of `NS(=O)(=O)c1ccc(CCNCc2ccco2)cc1`
0.04

Output Ratio Ki of `NCCCN(CCc1ccccc1)CC(=O)N(CCc1ccc(S(N)(=O)=O)cc1)Cc1ccc(F)cc1`
0.08

Output Ratio Ki of `N#CCCNCCc1ccc(S(N)(=O)=O)cc1`
0.03

Output Ratio Ki of `CCCCCCN(CCCCCC)CC(=O)N(CCC#N)CCc1ccc(S(N)(=O)=O)cc1`
0.02

---

# Species: Homo sapiens
# ASSAY_TEXT: Selectivity index, ratio of Ki for inhibition of human CA2 to Ki for inhibition of human CA12
Would you mind sorting the entries by Ratio Ki according to these classes? bottom bin: < 1; middle bin: ≥ 1 and < 5; top bin: ≥ 5

structure_string=CCN(CCC(=O)N(CCc1ccc(S(N)(=O)=O)cc1)Cc1ccccc1)Cc1ccccc1 class="bottom bin"
structure_string=NS(=O)(=O)c1ccc(CCN(Cc2ccc3ccccc3c2)C(=O)CN(CCC(=O)O)CCc2ccccc2)cc1 class="top bin"
structure_string=NCCCN(CCc1ccccc1)CC(=O)N(CCc1ccc(S(N)(=O)=O)cc1)Cc1ccc(F)cc1 class="top bin"
structure_string=NS(=O)(=O)c1ccc(CCN(CCc2ccccc2)C(=O)CN(CCC(=O)O)CCc2ccccc2)cc1 class="middle bin"
structure_string=CCN(CC)CCC(=O)N(CCc1ccc(S(N)(=O)=O)cc1)Cc1ccccc1 class="bottom bin"
structure_string=CCCCCN(CCCCC)CCC(=O)N(CCc1ccc(S(N)(=O)=O)cc1)Cc1ccccc1 class="top bin"

Kindly identify the class of `NS(=O)(=O)c1ccc(CCN(Cc2ccccc2)C(=O)CCN(Cc2ccccc2)Cc2ccccc2)cc1` .
middle bin

Kindly identify the class of `CCCCCCCCN(CCCCCCCC)CCC(=O)N(CCc1ccc(S(N)(=O)=O)cc1)Cc1ccccc1` .
middle bin

Kindly identify the class of `NS(=O)(=O)c1ccc(CCNCc2ccc3ccccc3c2)cc1` .
middle bin

---

# TARGET: Carbonic anhydrase 4 (Homo sapiens)
# Sequence (P22748 whole entry): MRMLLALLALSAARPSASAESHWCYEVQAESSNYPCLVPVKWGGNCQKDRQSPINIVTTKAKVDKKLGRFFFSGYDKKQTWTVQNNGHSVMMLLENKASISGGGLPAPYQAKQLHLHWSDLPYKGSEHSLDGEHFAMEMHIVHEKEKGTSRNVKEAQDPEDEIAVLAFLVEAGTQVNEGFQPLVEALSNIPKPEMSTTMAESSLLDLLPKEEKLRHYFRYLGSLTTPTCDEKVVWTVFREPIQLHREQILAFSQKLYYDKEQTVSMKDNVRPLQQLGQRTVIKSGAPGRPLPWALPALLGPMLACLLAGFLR
Each item that follows carries a reported pKi.
Notebook: values listed as pKi are -log10 of the concentration (mol/L).

structure_string=CCN(CC)CC(=O)N(CCc1ccc(S(N)(=O)=O)cc1)Cc1ccccc1 readout_name=pKi obs_value=5.38
structure_string=NCCCN(CCc1ccccc1)CC(=O)N(CCc1ccc(S(N)(=O)=O)cc1)Cc1ccco1 readout_name=pKi obs_value=6.43
structure_string=NCCCN(CCc1ccccc1)CC(=O)N(CCc1ccccc1)CCc1ccc(S(N)(=O)=O)cc1 readout_name=pKi obs_value=5.67
structure_string=NS(=O)(=O)c1ccc(CCNCc2ccc3ccccc3c2)cc1 readout_name=pKi obs_value=5.20
structure_string=NS(=O)(=O)c1ccc(CCN(Cc2ccccc2)C(=O)CCN(Cc2ccccc2)Cc2ccccc2)cc1 readout_name=pKi obs_value=5.33
structure_string=NCCCN(CCc1ccccc1)CC(=O)N(CCc1ccc(S(N)(=O)=O)cc1)Cc1ccc(F)cc1 readout_name=pKi obs_value=6.44
structure_string=N#CCCNCCc1ccc(S(N)(=O)=O)cc1 readout_name=pKi obs_value=5.26
structure_string=NS(=O)(=O)c1ccc(CCNCc2ccc(F)cc2)cc1 readout_name=pKi obs_value=5.92

Name the value of pKi reported for `CCCCCCN(CCCCCC)CC(=O)N(CCC#N)CCc1ccc(S(N)(=O)=O)cc1` when tested on Carbonic anhydrase 4 (Homo sapiens).
5.46

Name the value of pKi reported for `N#CCCN(CCc1ccccc1)CC(=O)N(CCC#N)CCc1ccc(S(N)(=O)=O)cc1` when tested on Carbonic anhydrase 4 (Homo sapiens).
6.14

Name the value of pKi reported for `CCCCCN(CCCCC)CCC(=O)N(CCc1ccc(S(N)(=O)=O)cc1)Cc1ccccc1` when tested on Carbonic anhydrase 4 (Homo sapiens).
5.49

Name the value of pKi reported for `N#CCCN(CCc1ccccc1)CC(=O)N(CCc1ccc(S(N)(=O)=O)cc1)Cc1ccc(F)cc1` when tested on Carbonic anhydrase 4 (Homo sapiens).
5.38

Name the value of pKi reported for `N#CCCN(CCc1ccccc1)CC(=O)N(CCc1ccc(S(N)(=O)=O)cc1)Cc1ccc([N+](=O)[O-])cc1` when tested on Carbonic anhydrase 4 (Homo sapiens).
5.62

Name the value of pKi reported for `CCCCCCN(CCCCCC)CCC(=O)N(CCc1ccc(S(N)(=O)=O)cc1)Cc1ccco1` when tested on Carbonic anhydrase 4 (Homo sapiens).
5.50

---

# Species: Homo sapiens
# ASSAY_TEXT: Selectivity index, ratio of Ki for inhibition of human CA1 to Ki for inhibition of human CA12
READOUT_NAME: Ratio Ki
Give the figure by itself; no unit, no explanation.

structure_string=NS(=O)(=O)c1ccc(CCN(CCc2ccccc2)C(=O)CN(CCC(=O)O)CCc2ccccc2)cc1 obs_value=6.9
structure_string=NS(=O)(=O)c1ccc(CCNCCc2ccccc2)cc1 obs_value=2.7
structure_string=CCCCCCN(CCCCCC)CC(=O)N(CCCN)CCc1ccc(S(N)(=O)=O)cc1 obs_value=13.4
structure_string=CCN(CC(=O)N(CCc1ccc(S(N)(=O)=O)cc1)Cc1ccccc1)Cc1ccccc1 obs_value=51
structure_string=NCCCN(CCc1ccccc1)CC(=O)N(CCc1ccc(S(N)(=O)=O)cc1)Cc1ccc2ccccc2c1 obs_value=48.3

Output Ratio Ki of `CCCCCN(CCCCC)CC(=O)N(CCc1ccc(S(N)(=O)=O)cc1)Cc1ccccc1`
7.3

Output Ratio Ki of `N#CCCN(CCc1ccccc1)CC(=O)N(CCc1ccc(S(N)(=O)=O)cc1)Cc1ccc2ccccc2c1`
10.5

Output Ratio Ki of `CCCCCCN(CCCCCC)CCC(=O)N(CCc1ccccc1)CCc1ccc(S(N)(=O)=O)cc1`
8.3

Output Ratio Ki of `CCCCCCN(CCCCCC)CC(=O)N(CCc1ccc(S(N)(=O)=O)cc1)Cc1ccc2ccccc2c1`
8.8

---

# Species on record: Homo sapiens
# ASSAY_TEXT: Selectivity index, ratio of Ki for inhibition of human CA4 to Ki for inhibition of human CA12
READOUT_NAME: Ratio Ki
Give the figure by itself; no unit, no explanation.

Here's what some known entries look like.
structure_string=N#CCCN(CCc1ccccc1)CC(=O)N(CCc1ccc(S(N)(=O)=O)cc1)Cc1ccc2ccccc2c1 readout_name="Ratio Ki" obs_value=58.8
structure_string=CCCCCCN(CCCCCC)CCC(=O)N(CCc1ccc(S(N)(=O)=O)cc1)Cc1ccccc1 readout_name="Ratio Ki" obs_value=44.4
structure_string=NS(=O)(=O)c1ccc(CCNCc2ccco2)cc1 readout_name="Ratio Ki" obs_value=28.6
structure_string=CCCCCCN(CCCCCC)CCC(=O)N(CCc1ccccc1)CCc1ccc(S(N)(=O)=O)cc1 readout_name="Ratio Ki" obs_value=54.6
structure_string=CCCCCCN(CCCCCC)CCC(=O)N(CCc1ccc(S(N)(=O)=O)cc1)Cc1ccco1 readout_name="Ratio Ki" obs_value=325

Output Ratio Ki of `CCCCCCN(CCCCCC)CC(=O)N(CCC(=O)O)CCc1ccc(S(N)(=O)=O)cc1`
4.6

Output Ratio Ki of `N#CCCNCCc1ccc(S(N)(=O)=O)cc1`
49

---

Each item that follows carries a reported Ratio Ki.
# Species: Homo sapiens
# ASSAY_TEXT: Selectivity index, ratio of Ki for inhibition of human CA1 to Ki for inhibition of human CA2

structure_string=N#CCCN(CCc1ccccc1)CC(=O)N(CCc1ccc(S(N)(=O)=O)cc1)Cc1ccc(F)cc1 obs_value=5.1
structure_string=CCN(CC)CC(=O)N(CCc1ccc(S(N)(=O)=O)cc1)Cc1ccccc1 obs_value=94.8

Output Ratio Ki of `CCCCCCN(CCCCCC)CC(=O)N(CCC(=O)O)CCc1ccc(S(N)(=O)=O)cc1`
0.5

Output Ratio Ki of `CCN(CCC(=O)N(CCc1ccc(S(N)(=O)=O)cc1)Cc1ccccc1)Cc1ccccc1`
6.8

Output Ratio Ki of `CCCCCCN(CCCCCC)CC(=O)N(CCc1ccc(S(N)(=O)=O)cc1)Cc1ccc2ccccc2c1`
0.1

Output Ratio Ki of `CCCCCCN(CCCCCC)CC(=O)N(CCC#N)CCc1ccc(S(N)(=O)=O)cc1`
7.5

Output Ratio Ki of `NS(=O)(=O)c1ccc(CCN(Cc2ccccc2)C(=O)CCN(Cc2ccccc2)Cc2ccccc2)cc1`
1.2

Output Ratio Ki of `NCCCN(CCc1ccccc1)CC(=O)N(CCc1ccc(S(N)(=O)=O)cc1)Cc1ccco1`
4.3

Output Ratio Ki of `CCCCCCN(CCCCCC)CCC(=O)N(CCc1ccc(S(N)(=O)=O)cc1)Cc1ccco1`
3.6

Output Ratio Ki of `N#CCCNCCc1ccc(S(N)(=O)=O)cc1`
0.7

Output Ratio Ki of `NS(=O)(=O)c1ccc(CCNCc2ccco2)cc1`
1.1
